Measured values drawn from BindingDB's records for doi:10.1002/cmdc.202100576 for this set.

Entries with their measured pIC50, system Replicase polyprotein 1ab (Severe acute respiratory syndrome coronavirus, UniProt P0C6X7):
pIC50 is a log-scale quantity: -log10 of the concentration expressed in molar.

Sample answers from the record:
COMPOUND	ENDPOINT_RESULT
COc1cccc2[nH]c(C(=O)N[C@@H](CC(C)C)C(=O)N[C@@H](C[C@@H]3CCNC3=O)C(=O)COC(=O)C3CC3)cc12 [WO2005113580-Ex-37]	6.79
CC(=O)Nc1cnc(SSc2ccccc2[N+](=O)[O-])s1 [cmdc.202100576, 17c]	5.72
CC(C)(C)c1ccc(N(C(=O)c2c[nH]cn2)[C@H](C(=O)NC2CCCC2)c2cccnc2)cc1 [cmdc.202100576, 19e]	5.77
COc1cccc2[nH]c(C(=O)N(C)[C@@H](CC(C)C)C(=O)N[C@@H](C[C@@H]3CCNC3=O)C(=O)CO)cc12 [WO2005113580-Ex-29]	7.08
CN1C(=O)C(=O)c2cc(C(=O)N3CCOCC3)ccc21 [cmdc.202100576, 13d]	4.44
CC(C)C[C@@H](NC(=O)OCc1ccccc1)C(=O)N[C@@H](C=O)CC1CCNC1=O (some centres not stated) [cmdc.202100576, 14b]	5.46

Now for the compound whose pIC50 we want.
-- ask Recorded pIC50 for O=C[C@H](CC1CCNC1=O)NC(=O)[C@H](Cc1ccccc1)NC(=O)c1cc2ccccc2[nH]1 (some centres not stated) [cmdc.202100576, 18b] , please?
-- reply 7.52

###

The entries below are paired with their reported IC50.
Target: Replicase polyprotein 1ab (Middle East respiratory syndrome-related coronavirus (isolate United Kingdom/H123990006/2012), UniProt K9N7C7)
Test: Various Assay
Kindly provide the numeric value in nM only, without the unit symbol.

MOLECULE	ENDPOINT_RESULT
CC(C)C[C@H](NC(=O)OCCc1cccc(Cl)c1)C(=O)N[C@@H](C[C@@H]1CCNC1=O)C(O)S(=O)(=O)O (stereo not given in full) [cmdc.202100576, 20f]	700
CC(C)C[C@H](NC(=O)OC1CCN(S(C)(=O)=O)CC1)C(=O)N[C@@H](C[C@@H]1CCNC1=O)C(O)S(=O)(=O)O (stereo not given in full) [cmdc.202100576, 20c]	500
O=C(NCc1ccccc1)C(=O)[C@H](C[C@@H]1CCCNC1=O)NC(=O)[C@H](CC1CCCCC1)NC(=O)c1cc2ccccc2[nH]1 [cmdc.202100576, 23e]	2

Now for the molecule whose IC50 we want.
-- ask Recorded IC50 for O=C(NCc1ccccc1)C(=O)[C@H](C[C@@H]1CCCNC1=O)NC(=O)[C@H](CC1CCCCC1)NC(=O)c1cnc2ccccc2n1 [cmdc.202100576, 23f] , please?
-- reply 5

###

The entries below are paired with their reported log10(IC50).
Target: UniProt P0C6X7
Recall that a logarithmic scale is used here: each number is log10 of IC50 in nM.

Sample answers from the record:
MOLECULE	log10(IC50)
O=C(Nc1ccc(N(C(=O)Cn2nnc3ccccc32)[C@H](C(=O)NCc2ccccc2)c2ccsc2)cc1)C1CC1 [cmdc.202100576, 19f]	3.30
COC(=O)c1c[nH]c(SSc2ccccc2[N+](=O)[O-])n1 [cmdc.202100576, 17e]	3.30
O=C[C@H](CC1CCNC1=O)NC(=O)[C@H](Cc1ccccc1)NC(=O)c1cc2cc(F)ccc2[nH]1 (stereo partly drawn)	2.05
CC(C)C(=O)Nc1ccc(N(C(=O)Cn2nnc3ccccc32)[C@H](C(=O)NCc2ccccc2)c2ccc(O)cc2)cc1 [cmdc.202100576, 19c]	3.04
CC(C)C[C@H](NC(=O)[C@H](CN1CCC(F)CC1)NC(=O)OCc1ccccc1)C(=O)N[C@@H](C[C@@H]1CCNC1=O)C(=O)C(=O)NC(C)C [cmdc.202100576, 22f]	0.85

-- ask Recall the recorded log10(IC50) for CC(C)C[C@@H](NC(=O)OCc1ccccc1)C(=O)N[C@H](CC1CCNC1=O)C(=O)C(=O)NC(C)C (stereo partly drawn) [cmdc.202100576, 14d] with UniProt P0C6X7 and state it.
-- reply 3.67

-- ask Cool, now CC(C)C[C@@H](NC(=O)[C@H](Cc1cccc2ccccc12)NC(=O)OCc1ccccc1)C(=O)N[C@H](CC1CCNC1=O)C(=O)C(=O)NC(C)C (stereo partly drawn) [cmdc.202100576, 14f]
-- reply 2.91

-- ask Cool, now CC1CCN(C(=O)c2ccc3c(c2)C(=O)C(=O)N3Cc2ccc3ccccc3c2)CC1 [cmdc.202100576, 13b]
-- reply 4.29

###

Entries with their measured IC50, system Replicase polyprotein 1ab (Severe acute respiratory syndrome coronavirus, UniProt P0C6X7):
Kindly provide the numeric value in nM only, without the unit symbol.

Sample answers from the record:
MOLECULE	IC50 (nM)
Cc1ccc(SSc2nccs2)cc1 [cmdc.202100576, 17b]	1300
C=C(N[C@H](C=O)CC1CCNC1=O)[C@H](Cc1ccccc1)NC(=O)[C@@H](NC(=O)c1cncc(F)c1)C(C)C (stereo partly specified) [cmdc.202100576, 18c]	35
O=C1C(=O)N(Cc2ccccc2)c2ccc(C(=O)N3CCCC3)cc21 [cmdc.202100576, 13c]	22900
O=C1c2c(O)cc(O)cc2O[C@@H](c2ccc(O)c(O)c2)[C@@H]1O	73000
CC(C)C[C@H](NC(=O)[C@H](CN(C)C)NC(=O)OCc1ccccc1)C(=O)N[C@@H](C[C@@H]1CCNC1=O)C(=O)C(=O)NC(C)(C)C [cmdc.202100576, 22d]	7

Now for the molecule whose IC50 we want.
-- ask Recall the recorded IC50 for COC(C)[C@H](NC(=O)OCc1ccccc1)C(=O)N[C@@H](CC(C)C)C(=O)N[C@@H](C[C@@H]1CCNC1=O)C(=O)C(=O)NC(C)C (stereo partly specified) [cmdc.202100576, 22c] with Replicase polyprotein 1ab (Severe acute respiratory syndrome coronavirus, UniProt P0C6X7) and state it.
-- reply 6.8

###

Biological target: Replicase polyprotein 1ab (Middle East respiratory syndrome-related coronavirus (isolate United Kingdom/H123990006/2012), UniProt K9N7C7)
Experiment: Various Assay
ASSAY_METRIC: IC50

Sample answers from the record:
MOLECULE	ENDPOINT_RESULT
O=C(NCc1ccccc1)C(=O)[C@H](C[C@@H]1CCCNC1=O)NC(=O)[C@H](Cc1ccccc1)NC(=O)c1cnc2ccccc2n1 [cmdc.202100576, 23d]	2 nM
CC(C)C[C@H](NC(=O)OC1(Cc2ccccc2)CCN(C(=O)OC(C)(C)C)CC1)C(=O)N[C@@H](C[C@@H]1CCNC1=O)C(O)S(=O)(=O)O (stereo partly drawn) [cmdc.202100576, 20d]	600 nM

Now for the molecule whose IC50 we want.
-- ask Recorded IC50 for O=C(NCc1ccccc1)C(=O)[C@H](C[C@@H]1CCCNC1=O)NC(=O)[C@H](Cc1ccccc1)NC(=O)c1cc2ccccc2[nH]1 [cmdc.202100576, 23c] , please?
-- reply < 1 nM

###

Target: Replicase polyprotein 1ab (Severe acute respiratory syndrome coronavirus, UniProt P0C6X7)
The entries below are paired with their reported log10(IC50).
Recall that a logarithmic scale is used here: each number is log10 of IC50 in nM.

Sample answers from the record:
MOLECULE	ASSAYED_SYSTEM	log10(IC50)
O=c1c(O[C@@H]2O[C@H](CO[C@@H]3OC[C@H](O)[C@H](O)[C@H]3O)[C@@H](O)[C@H](O)[C@H]2O)c(-c2ccc(O)c(O)c2)oc2cc(O)cc(O)c12 [cmdc.202100576, 12c]	Replicase polyprotein 1ab (Severe acute respiratory syndrome coronavirus, UniProt P0C6X7)	4.50
O=[N+]([O-])c1ccccc1SSc1nccs1 [cmdc.202100576, 17d]	Replicase polyprotein 1ab (Severe acute respiratory syndrome coronavirus, UniProt P0C6X7)	3.30
CC(C)C(=O)Nc1ccc(N(C(=O)Cn2nnc3ccccc32)[C@H](C(=O)NCc2ccccc2)c2cccc(F)c2)cc1 [cmdc.202100576, 19d]	Replicase polyprotein 1ab (Severe acute respiratory syndrome coronavirus, UniProt P0C6X7)	3.20
CC(C)C[C@H](NC(=O)c1nc2ccccc2[nH]1)C(=O)N[C@H](C=O)C[C@@H]1CCNC1=O	Replicase polyprotein 1ab (Severe acute respiratory syndrome coronavirus, UniProt P0C6X7)	1.48

Now for the molecule whose log10(IC50) we want.
-- ask Recorded log10(IC50) for CC(C)C[C@H](NC(=O)[C@H](CN1CCOCC1)NC(=O)OCc1ccccc1)C(=O)N[C@@H](C[C@@H]1CCNC1=O)C(=O)C(=O)NC(C)C [cmdc.202100576, 22e] , please?
-- reply 0.85
